# Tested on: HDAC-8 (Homo sapiens)
# Sequence (Q9BY41 whole entry): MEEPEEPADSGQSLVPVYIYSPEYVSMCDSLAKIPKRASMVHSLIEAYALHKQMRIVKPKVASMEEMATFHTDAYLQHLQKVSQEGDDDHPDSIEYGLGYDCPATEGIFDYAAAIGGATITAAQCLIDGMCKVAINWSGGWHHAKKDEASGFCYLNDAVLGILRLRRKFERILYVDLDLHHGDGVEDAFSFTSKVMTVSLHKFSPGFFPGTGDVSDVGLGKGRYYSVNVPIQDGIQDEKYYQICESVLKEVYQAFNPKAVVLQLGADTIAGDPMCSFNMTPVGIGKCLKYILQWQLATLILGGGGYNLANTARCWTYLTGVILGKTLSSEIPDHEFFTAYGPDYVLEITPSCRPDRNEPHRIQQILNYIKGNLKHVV
pIC50: −log10 of the molar value.

Molecule: Cn1cc(Cc2ccc(F)cc2)c2cc(C(=O)NO)ccc21 [Compound 33]
pIC50: 7.62
